Parameter IC50: see the listing below.
System: MDA-MB-435s cells (human melanoma cells)
Assay: MDA-MB-435s cell proliferation inhibitory assay (CellTiter-Glo)
Type: cell-based
Details: Homo sapiens, MDA-MB-435S, 72 h, read-out: Proliferation inhibition IC50
test readout: IC50 (nM)

[[record]]
compound = "CC[C@@]1(O)C(=O)OCc2c1cc1n(c2=O)Cc2c-1nc1ccc(OC)cc1c2[C@@H](C)N [Example 31b]"
test_readout = "IC50"
endpoint_value = 1

[[record]]
compound = "CC[C@@]1(O)C(=O)OCc2c1cc1n(c2=O)Cc2c-1nc1cc3c(cc1c2[C@@H](C)N)OCO3 [Example 35b]"
test_readout = "IC50"
endpoint_value = 1.15

[[record]]
compound = "CC[C@@]1(O)C(=O)OCc2c1cc1n(c2=O)Cc2c-1nc1cc(F)c(C)cc1c2[C@@H](C)N [Example 1]"
test_readout = "IC50"
endpoint_value = 0.75

[[record]]
compound = "CC[C@@]1(O)C(=O)OCc2c1cc1n(c2=O)Cc2c-1nc1cc(F)c(C)cc1c2[C@H](C)NC(=O)[C@@H](C)O [Example 15]"
test_readout = "IC50"
endpoint_value = 4.2


These entries and their values trace back to patent US20240376120A1.
